TARGET_OF_ASSAY: UniProt P25099
Sequence (whole entry): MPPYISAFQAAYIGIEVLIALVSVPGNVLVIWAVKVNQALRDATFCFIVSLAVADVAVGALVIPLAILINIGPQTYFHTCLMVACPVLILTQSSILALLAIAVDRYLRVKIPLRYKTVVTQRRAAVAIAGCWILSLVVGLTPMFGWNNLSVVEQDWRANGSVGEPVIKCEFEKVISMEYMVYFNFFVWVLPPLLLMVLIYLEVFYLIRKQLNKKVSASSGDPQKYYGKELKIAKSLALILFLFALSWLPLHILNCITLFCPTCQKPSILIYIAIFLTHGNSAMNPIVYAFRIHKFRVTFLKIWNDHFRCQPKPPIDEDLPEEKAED
PROTOCOL_TEXT: Percent displacement from adenosine A1 receptor at 10e-5 M in rat brain membrane in vitro.
Assay type: cell membranes
REPORTED_ENDPOINT: Displacement (%)

Entry CC(C)(CO)NC(=O)[C@H]1OC(n2cnc3c(NCCc4cn(Cc5ccc(Cl)cc5)c5ccccc45)ncnc32)[C@H](O)[C@@H]1O (some centres undefined) , UniProt P25099 data, Displacement value: 79

The measured Displacement that CNC(=O)[C@H]1O[C@@H](n2cnc3c(NCCc4cn(Cc5cc(C)ccc5C)c5ccccc45)ncnc32)[C@H](O)[C@@H]1O showed for UniProt P25099 is 80

Fill in: UniProt P25099 Displacement for O=C(NC1CC1)[C@H]1OC(n2cnc3c(NCCc4c(-c5ccccc5)[nH]c5ccccc45)ncnc32)[C@H](O)[C@@H]1O (some centres undefined) = 84

Given the molecule O=C(NC1CC1)[C@H]1OC(n2cnc3c(NCCc4cn(Cc5ccccc5)c5ccccc45)ncnc32)[C@H](O)[C@@H]1O (some centres undefined) and test system UniProt P25099, the measured Displacement is 99

----------
TARGET_OF_ASSAY: Adenosine receptor A1 (Rattus norvegicus, UniProt P25099)
PROTOCOL_TEXT: Binding affinity for adenosine A1 receptor in vitro using rat brain membranes.
Format: cell membranes
REPORTED_ENDPOINT: Ki (nM)

Example cases with answers are listed next.
Recorded Ki (molecule O=C(NC1CC1)[C@H]1O[C@@H](n2cnc3c(NCCc4cn(Cc5cccnc5)c5ccccc45)ncnc32)[C@H](O)[C@@H]1O ): 26

So, COc1ccccc1Cn1cc(CCNc2ncnc3c2ncn3C2O[C@H](C(=O)NC3CC3)[C@@H](O)[C@H]2O)c2ccccc21 (some centres undefined) ? Its Ki was 170

(a) CN(C)c1ccccc1Cn1cc(CCNc2ncnc3c2ncn3C2O[C@H](C(=O)NC3CC3)[C@@H](O)[C@H]2O)c2ccccc21 (some centres undefined)
(b) O=C(NC1CC1)[C@H]1O[C@@H](n2cnc3c(NCCc4cn(Cc5cccc([N+](=O)[O-])c5)c5ccccc45)ncnc32)[C@H](O)[C@@H]1O
Smaller Ki value, a vs b ? Respond using the label that marks the chosen record.
b

----------
TARGET_OF_ASSAY: Adenosine receptor A1 (Rattus norvegicus)
Sequence (whole entry): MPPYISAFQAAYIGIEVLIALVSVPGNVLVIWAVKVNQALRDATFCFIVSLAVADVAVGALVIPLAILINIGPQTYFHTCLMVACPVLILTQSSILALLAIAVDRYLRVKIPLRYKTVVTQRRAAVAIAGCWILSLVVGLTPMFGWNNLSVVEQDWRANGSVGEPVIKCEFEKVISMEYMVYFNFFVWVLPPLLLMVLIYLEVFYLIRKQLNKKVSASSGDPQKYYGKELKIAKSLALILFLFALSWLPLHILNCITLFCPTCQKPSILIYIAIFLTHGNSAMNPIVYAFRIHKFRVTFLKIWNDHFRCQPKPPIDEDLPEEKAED
PROTOCOL_TEXT: Percent displacement from adenosine A1 receptor at 10e-7 M in rat brain membrane in vitro.
Format: cell membranes
REPORTED_ENDPOINT: Displacement (%)

Below, each entry is followed by its recorded Displacement result.
Entry Cc1ccc(Cn2cc(CCNc3ncnc4c3ncn4C3O[C@H](C(=O)NC4CC4)[C@@H](O)[C@H]3O)c3ccccc32)cc1C (stereo not given in full) , Displacement reported as 29

Looking up OC[C@H]1O[C@@H](n2cnc3c(NCCc4cn(Cc5ccc(Cl)cc5)c5ccccc45)ncnc32)[C@H](O)[C@@H]1O , I see its Displacement listed as 71

Measured Displacement, Cc1ccc(C)c(Cn2cc(CCNc3ncnc4c3ncn4C3O[C@H](C(=O)NCCN4CCOCC4)[C@@H](O)[C@H]3O)c3ccccc32)c1 (stereo not given in full) : 5

(P) Cn1cc(CCNc2ncnc3c2ncn3C2O[C@H](C(=O)NC3CC3)[C@@H](O)[C@H]2O)c2ccccc21 (stereo not given in full)
(Q) O=C(NC1CC1)[C@H]1OC(n2cnc3c(NCCc4cn(Cc5ccc(Cl)c(Cl)c5)c5ccccc45)ncnc32)[C@H](O)[C@@H]1O (stereo not given in full)
Please compare: P and Q . Report which one has the smaller Displacement value. Selection: enter the item's label.
Q

----------
TARGET_OF_ASSAY: Adenosine receptor A1 (Rattus norvegicus) (UniProt P25099)
PROTOCOL_TEXT: Percent displacement from adenosine A1 receptor at 10e-5 M in rat brain membrane in vitro.
Type: cell membranes
REPORTED_ENDPOINT: Displacement (%)

O=C(NC1CC1)[C@H]1OC(n2cnc3c(NCCc4cn(Cc5ccc(Cl)cc5)c5ccc(Cl)cc45)ncnc32)[C@H](O)[C@@H]1O (some centres not stated) tested on Adenosine receptor A1 (Rattus norvegicus) (UniProt P25099) gave Displacement: 100

Fill in: Adenosine receptor A1 (Rattus norvegicus) (UniProt P25099) Displacement for O=C(NC1CC1)[C@H]1OC(n2cnc3c(NCCc4cn(Cc5ccc(Cl)c(Cl)c5)c5ccccc45)ncnc32)[C@H](O)[C@@H]1O (some centres not stated) = 100

Known value: Adenosine receptor A1 (Rattus norvegicus) (UniProt P25099) Displacement of the compound CCNC(=O)[C@H]1OC(n2cnc3c(NCCc4cn(Cc5cc(C)ccc5C)c5ccccc45)ncnc32)[C@H](O)[C@@H]1O (some centres not stated) equals 92

Measured on Adenosine receptor A1 (Rattus norvegicus) (UniProt P25099), CN(C)c1ccccc1Cn1cc(CCNc2ncnc3c2ncn3C2O[C@H](C(=O)NC3CC3)[C@@H](O)[C@H]2O)c2ccccc21 (some centres not stated) has a documented Displacement of 99

Record for O=C(NC1CC1)[C@H]1OC(n2cnc3c(NCCc4cn(Cc5ccc(Br)cc5F)c5ccccc45)ncnc32)[C@H](O)[C@@H]1O (some centres not stated) under target or system Adenosine receptor A1 (Rattus norvegicus) (UniProt P25099): Displacement reported as 96

Record Cc1ccc(C)c(Cn2cc(CCNc3ncnc4c3ncn4C3O[C@H](C(=O)NC4CC4)[C@@H](O)[C@H]3O)c3ccccc32)c1 (some centres not stated) ; system Adenosine receptor A1 (Rattus norvegicus) (UniProt P25099); Displacement = 93

COc1ccc(Cn2cc(CCNc3ncnc4c3ncn4C3O[C@H](C(=O)NC4CC4)[C@@H](O)[C@H]3O)c3ccccc32)cc1 (some centres not stated) on Adenosine receptor A1 (Rattus norvegicus) (UniProt P25099) gives Displacement = 98

----------
Listing of entries alongside the reported ED50.
Test system: Mus musculus
PROTOCOL_TEXT: Effective dose for phenylbenzoquinone-induced writhing in mice after peroral administration expressed as analgesic activity.
Assay type: functional
ASSAY_CONDITIONS: po
Record the value in mg/kg, omitting the unit from your answer.

Consider the following illustrative entries.
COc1ccc2c(c1)c(CCNc1ncnc3c1ncn3C1O[C@H](C(=O)NC3CC3)[C@@H](O)[C@H]1O)cn2Cc1cc(C)ccc1C (stereo not given in full) has a reported ED50 of 46.3

Documented ED50 of O=C(NC1CC1)[C@H]1OC(n2cnc3c(NCCc4cn(CCN5CCCCC5)c5ccccc45)ncnc32)[C@H](O)[C@@H]1O (stereo not given in full) : 7.3

More entries:
Cc1ccc(C)c(Cn2cc(C(C)CNc3ncnc4c3ncn4[C@@H]3O[C@H](C(=O)NC4CC4)[C@@H](O)[C@H]3O)c3ccccc32)c1 (stereo not given in full) yielded ED50 of 0.9

----------
TARGET_OF_ASSAY: Adenosine receptor A1 (Rattus norvegicus, UniProt P25099)
PROTOCOL_TEXT: Binding affinity for adenosine A1 receptor in vitro using rat brain membranes.
Assay type: cell membranes
pKi: −log10 of the molar value.
REPORTED_ENDPOINT: pKi

pKi reading for Cc1ccc(Cn2cc(CCNc3ncnc4c3ncn4C3O[C@H](C(=O)NC4CC4)[C@@H](O)[C@H]3O)c3ccccc32)cc1C (stereo partly drawn) : 6.80

Record summary for Cc1ccc(C)c(Cn2cc(C(C)CNc3ncnc4c3ncn4[C@@H]3O[C@H](C(=O)NC4CC4)[C@@H](O)[C@H]3O)c3ccccc32)c1 (stereo partly drawn) : reported pKi = 6.70

According to the records, this compound Cc1ccc(C)c(Cn2cc(CCNc3ncnc4c3ncn4[C@@H]3O[C@H](C(=O)NC4CC4)[C@@H](O)[C@H]3O)c3cc(Cl)ccc32)c1 displays pKi of 6.82
